Tested on: HT29
Settings: 72 h, relative to DMSO; 10 µM
Experimental: To investigate the key signaling pathways and biological processes involved in CRC progression, we analyzed the National Center for Biotechnology Information Gene Expression Omnibus (GEO) dataset GSE115313, which included 42 CRC and paired normal tissues (Figure 1A). […] Absorbance at the wavelength of 450 nm was measured using an automated microplate spectrophotometer (BioTek Instruments, Winooski, VT, USA).
Property: Relative cell viability (%); scope: individual molecules
Give your result in % as a bare value.

[[record]]
molecule = "C=CC(=O)Nc1cc(Nc2nccc(-c3cn(C)c4ccccc34)n2)c(OC)cc1N(C)CCN(C)C"
result = 0.8547

[[record]]
molecule = "O=c1sn(-c2cccc3ccccc23)c(=O)n1Cc1ccccc1"
result = 51.94

[[record]]
molecule = "CNC(=O)[C@H](Cc1ccccc1)NC(=O)[C@H](CC(C)C)[C@H](CSc1cccs1)C(=O)NO"
result = 103.4

[[record]]
molecule = "O=C(CCCN1CCC(O)(c2ccc(Cl)cc2)CC1)c1ccc(F)cc1"
result = 29.34

[[record]]
molecule = "Nc1nc(F)nc2c1ncn2[C@@H]1O[C@H](COP(=O)(O)O)[C@@H](O)[C@@H]1O [Fludarabine Phosphate]"
result = 52.49


Suppose we examine the molecule CC1=C(CC(=O)O)c2cc(F)ccc2/C1=C\c1ccc([S+](C)[O-])cc1 (stereo not drawn) ; what Relative cell viability (%) value has been reported?
216.9

Suppose we examine the molecule O=C(NCCO[N+](=O)[O-])c1cccnc1 ; what Relative cell viability (%) value has been reported?
198.8

Suppose we examine the molecule Cc1cc(C)c2c(c1)[C@@H](N(Cc1cc(C(F)(F)F)cc(C(F)(F)F)c1)c1nnn(C)n1)CCCN2C[C@H]1CC[C@H](C(=O)O)CC1 ; what Relative cell viability (%) value has been reported?
40.29

Suppose we examine the molecule C[C@]12CCC3=C4CCC(=O)C=C4CC[C@H]3[C@@H]1CC[C@@]2(O)CC#N ; what Relative cell viability (%) value has been reported?
96.11

Suppose we examine the molecule CC(C)c1nc(N(C)S(C)(=O)=O)nc(-c2ccc(F)cc2)c1/C=C/[C@@H](O)C[C@@H](O)CC(=O)O ; what Relative cell viability (%) value has been reported?
120.2

Suppose we examine the molecule C[C@@H](O)[C@H]1C(=O)N2C(C(=O)O)=C(S[C@@H]3CN[C@H](C(=O)N(C)C)C3)[C@H](C)[C@H]12 ; what Relative cell viability (%) value has been reported?
72.74

Suppose we examine the molecule O[C@@H]1CO[C@H]2[C@@H]1OC[C@@H]2O [Isosorbide] ; what Relative cell viability (%) value has been reported?
83.94

----------
Property: Relative cell viability (%); scope: individual compounds
System: HT29
Conditions: 72 h, relative to DMSO; 10 µM
Structures can show the parent of a compound that is named as a salt.
Give your result in % as a bare value.

[[record]]
compound = "CCCCOc1ccc(C(=O)CCN2CCCCC2)cc1 [Dyclonine HCl]"
result = 155.2

[[record]]
compound = "Cc1c(C(=O)Nc2ccc(N3C[C@@H](C)O[C@@H](C)C3)nc2)cccc1-c1ccc(OC(F)(F)F)cc1"
result = 111.4


Let us move to another entry and its Relative cell viability (%).
Suppose we examine the compound CCOC(=O)[C@H](CCc1ccccc1)N[C@H]1CCc2ccccc2N(CC(=O)O)C1=O [Benazepril HCl] ; what Relative cell viability (%) value has been reported?
72.74

----------
System: HT29
Conditions: 72 h, relative to DMSO; 10 µM
Where a name gives a salt, the structure may show the parent alone.
property-label: Relative cell viability (%) (%)
Give your result in % as a bare value.

See these solved cases before continuing.
[[record]]
molecule = "CCOC(=O)C1=C[C@]2(CC)CCCN3CCc4c(n1c1ccccc41)[C@@H]32"
result = 107.3

[[record]]
molecule = "O=c1[nH]c(=O)n([C@H]2C[C@H](O)[C@@H](CO)O2)cc1F"
result = 44.7

[[record]]
molecule = "CS(=O)(=O)c1ccc([C@@H](O)[C@@H](CF)NC(=O)C(Cl)Cl)cc1"
result = 85.76

[[record]]
molecule = "N#C[C@@H]1C[C@@H]2C[C@@H]2N1C(=O)[C@@H](N)C12CC3CC(CC(O)(C3)C1)C2 [Saxagliptin hydrate]"
result = 117.5

[[record]]
molecule = "CCOc1cc(N)c(Cl)cc1C(=O)NCC1CN(Cc2ccc(F)cc2)CCO1 (stereo not drawn) [Mosapride Citrate]"
result = 38.47

[[record]]
molecule = "CC1(C)CCC(C)(C)c2cc(NC(=O)c3ccc(C(=O)O)cc3)ccc21"
result = 94.85

[[record]]
molecule = "CS(=O)(=O)Nc1ccc([N+](=O)[O-])cc1Oc1ccccc1 [Nimesulide]"
result = 191.7

[[record]]
molecule = "OC[C@@H](O)[C@@H](O)[C@H](O)[C@@H](O)CO"
result = 125


Let us move to another entry and its Relative cell viability (%).
// fetch HT29 Relative cell viability (%) for C[C@H](Nc1ncnc2[nH]cnc12)c1cc2cccc(Cl)c2c(=O)n1-c1ccccc1
79.06

----------
System: HT29
Details: 72 h, relative to DMSO; 10 µM
Counter-ions that a name gives are not always drawn.
property-label: Relative cell viability (%) (%)
Give your result in % as a bare value.

See these solved cases before continuing.
[[record]]
compound = "N#CC(c1ccc(Cl)cc1)c1c(Cl)cc(-n2ncc(=O)[nH]c2=O)cc1Cl (stereo not shown)"
study_system = "HT29"
result = 219

[[record]]
compound = "CC/C(=C(/CC)c1ccc(O)cc1)c1ccc(O)cc1"
study_system = "HT29"
result = 69.07

[[record]]
compound = "O=C(/C=C\\n1cnc(-c2cc(C(F)(F)F)cc(C(F)(F)F)c2)n1)NNc1cnccn1"
study_system = "HT29"
result = 44.44


Suppose we examine the compound COC(c1ccccc1)(c1ccccc1)[C@H](Oc1nc(C)cc(C)n1)C(=O)O ; what Relative cell viability (%) value has been reported?
132.6

Suppose we examine the compound CCCc1nn(C)c2c(=O)[nH]c(-c3cc(S(=O)(=O)N4CCN(C)CC4)ccc3OCC)nc12 [Sildenafil Mesylate] ; what Relative cell viability (%) value has been reported?
91.88

Suppose we examine the compound CC1CNc2c(cccc2S(=O)(=O)N[C@@H](CCCNC(=N)N)C(=O)N2CC[C@@H](C)C[C@@H]2C(=O)O)C1 (stereo partly shown) ; what Relative cell viability (%) value has been reported?
123.2

Suppose we examine the compound NC(CO)C(=O)NNCc1ccc(O)c(O)c1O (stereo not shown) [Benserazide HCl] ; what Relative cell viability (%) value has been reported?
108.4

Suppose we examine the compound CN(C)c1ccc(C(=C2C=CC(=[N+](C)C)C=C2)c2ccc(N(C)C)cc2)cc1 ; what Relative cell viability (%) value has been reported?
4.52

----------
System: HT29
Conditions: 72 h, relative to DMSO; 10 µM
Procedure: To investigate the key signaling pathways and biological processes involved in CRC progression, we analyzed the National Center for Biotechnology Information Gene Expression Omnibus (GEO) dataset GSE115313, which included 42 CRC and paired normal tissues (Figure 1A). […] Absorbance at the wavelength of 450 nm was measured using an automated microplate spectrophotometer (BioTek Instruments, Winooski, VT, USA).
property-label: Relative cell viability (%) (%)
Give your result in % as a bare value.

[[record]]
compound = "CC1(COc2ccc3c(c2)ncn3-c2ccc3cccc(N4CCC(N)CC4)c3n2)COC1 [Crenolanib (CP-868596)]"
study_system = "HT29"
property_label = "Relative cell viability (%)"
result = 11.17

[[record]]
compound = "O=C(O)c1nn(Cc2ccc(Cl)cc2Cl)c2ccccc12 [Lonidamine]"
study_system = "HT29"
property_label = "Relative cell viability (%)"
result = 47.57


Let us move to another entry and its Relative cell viability (%).
Suppose we examine the compound CO[C@H]1/C=C/O[C@@]2(C)Oc3c(C)c(O)c4c(O)c(c(/C=N/N5CCN(C6CCCC6)CC5)c(O)c4c3C2=O)NC(=O)/C(C)=C\C=C\[C@H](C)[C@H](O)[C@@H](C)[C@@H](O)[C@@H](C)[C@H](OC(C)=O)[C@@H]1C [Rifapentine] ; what Relative cell viability (%) value has been reported?
69.07

----------
Tested on: HT29
Details: 72 h, relative to DMSO; 10 µM
Counter-ions that a name gives are not always drawn.
Property: Relative cell viability (%); scope: individual compounds
Give the value; after it, write the unit.

[[record]]
compound = "C[C@@H]1[C@H](O)[C@@H](C)/C=C/C=C/CC/C=C/C=C/C=C/C=C/[C@H](O[C@H]2O[C@@H](C)[C@H](O)[C@@H](N)[C@H]2O)C[C@@H]2O[C@](O)(C[C@@H](O)[C@H](O)CC[C@@H](O)C[C@@H](O)C[C@@H](O)CC(=O)O[C@H]1C)C[C@H](O)[C@H]2C(=O)O"
study_system = "HT29"
property_label = "Relative cell viability (%)"
result = "170.8%"


// fetch HT29 Relative cell viability (%) for Cc1nc(NC(=O)N2CCC[C@H]2C(N)=O)sc1-c1ccnc(C(C)(C)C(F)(F)F)c1
50.49%

// fetch HT29 Relative cell viability (%) for C=CC(=O)Nc1cccc(Nc2nc(Nc3ccc(N4CCN(C(C)=O)CC4)cc3OC)ncc2C(F)(F)F)c1
16.24%

// fetch HT29 Relative cell viability (%) for COc1ccc(Cl)c(Nc2nc3ccccc3nc2NS(=O)(=O)c2cccc(NC(=O)C(C)(C)N)c2)c1
48.29%

// fetch HT29 Relative cell viability (%) for O=C(CCCCCCNC(=O)c1cnc(N(c2ccccc2)c2ccccc2)nc1)NO
32.91%

// fetch HT29 Relative cell viability (%) for CCC1=C(C)CN(C(=O)NCCc2ccc(S(=O)(=O)NC(=O)N[C@H]3CC[C@H](C)CC3)cc2)C1=O [Glimepiride]
64.95%

// fetch HT29 Relative cell viability (%) for CNCC[C@H](Oc1cccc2ccccc12)c1cccs1 [Duloxetine HCl]
99.61%

// fetch HT29 Relative cell viability (%) for NC(=O)[C@@H]1CCCN1C(=O)[C@H](Cc1cnc[nH]1)NC(=O)[C@@H]1CCC(=O)N1
76.5%

// fetch HT29 Relative cell viability (%) for CN(C)[C@@H](CCOc1cccc2ccccc12)c1ccccc1 [Dapoxetine HCl]
44.92%

// fetch HT29 Relative cell viability (%) for Cc1cc(O)ccc1Cl
65.76%

// fetch HT29 Relative cell viability (%) for Clc1ccc(C(c2ccccc2Cl)C(Cl)Cl)cc1 (centres unmarked)
63.98%

// fetch HT29 Relative cell viability (%) for CC(C)Oc1ccc(-c2nc(-c3cccc4c3CC[C@@H]4NCCO)no2)cc1C#N [Ozanimod (RPC1063)]
47.01%

// fetch HT29 Relative cell viability (%) for Cc1noc(NS(=O)(=O)c2ccc(N)cc2)c1C
134.3%

// fetch HT29 Relative cell viability (%) for COc1ccc(C(=O)N2CCCC2=O)cc1
91.43%

Every entry's value here was drawn from paper PMC11672294.
